target: T1, recombinant HIS-tagged human nectin-4 (Acro Biosystems Cat. No. NE4-H52H3) (human, UniProt Q96NY8 32-349)
T1 construct: Bought protein; not shown: HIS tag
T1 sequence: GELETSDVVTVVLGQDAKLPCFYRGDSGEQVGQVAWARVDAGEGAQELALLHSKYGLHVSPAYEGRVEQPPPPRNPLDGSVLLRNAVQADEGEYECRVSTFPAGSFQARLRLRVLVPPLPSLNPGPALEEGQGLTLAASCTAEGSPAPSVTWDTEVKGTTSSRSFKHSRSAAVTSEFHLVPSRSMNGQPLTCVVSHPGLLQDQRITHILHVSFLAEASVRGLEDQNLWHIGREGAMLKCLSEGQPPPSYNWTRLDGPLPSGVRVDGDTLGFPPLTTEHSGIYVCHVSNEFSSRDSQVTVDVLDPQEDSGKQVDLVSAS
procedure.summary: SPR Biacore 8K+, ADC captured via anti-human Fc, nectin-4 analyte, 37 C;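 also: Nectin-4 injected over captured ADC at 0 to 600 nM for 2 min association, then 10 min dissociation, with a reference flow cell lacking ADC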
pKd: −log10 of the molar value.
observation.type: pKd

1. Ab4 ADC (Ab4 conjugated as in Formula XI, DAR of 8) (antibody, human IgG1, kappa, L234A L235A, V domains shown, camptothecin analog linker-payload of Formula XI on cysteine thiols after full reduction, DAR of 8 per antibody; positions not given, Antibody-drug conjugate of Ab4; also called Ab4 (ADC column)) VH: QVQLQESGPGLVKPSETLSLTCTVSGGSISGYYWSWIRQPPGKGLEWIGYIYYSGSTNYNPSLKSRVTISVDTSKNQFSLKLSSVTAADTAVYYCARLGIFFDAFDIWGQGTLVTVSS VL: DIQLTQSPSFLSASVGDRVTITCRASQGISSYLAWYQQKPGKAPKLLIYAASTLQSGVPSRFSGSGSGTEFTLTISSLQPEDFATYYCQQFNSYPWTFGQGTKVEIKR    6.69
2. Ab3 ADC (Ab3 conjugated as in Formula XI, DAR of 8) (antibody, human IgG1, kappa, L234A L235A, V domains shown, camptothecin analog linker-payload of Formula XI on cysteine thiols after full reduction, DAR of 8 per antibody; positions not given, Antibody-drug conjugate of Ab3; also called Ab3 (ADC column)) VH: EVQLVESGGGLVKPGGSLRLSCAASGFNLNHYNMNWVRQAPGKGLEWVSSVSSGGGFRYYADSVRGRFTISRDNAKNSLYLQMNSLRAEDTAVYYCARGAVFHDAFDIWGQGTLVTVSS VL: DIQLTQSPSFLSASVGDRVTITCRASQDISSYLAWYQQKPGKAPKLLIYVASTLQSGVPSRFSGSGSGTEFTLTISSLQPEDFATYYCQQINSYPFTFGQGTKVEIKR    8.99
3. Ab6 ADC (Ab6 conjugated as in Formula XI, DAR of 8) (antibody, human IgG1, lambda, L234A L235A, V domains shown, camptothecin analog linker-payload of Formula XI on cysteine thiols after full reduction, DAR of 8 per antibody; positions not given, Antibody-drug conjugate of Ab6; also called Ab6 (ADC column)) VH: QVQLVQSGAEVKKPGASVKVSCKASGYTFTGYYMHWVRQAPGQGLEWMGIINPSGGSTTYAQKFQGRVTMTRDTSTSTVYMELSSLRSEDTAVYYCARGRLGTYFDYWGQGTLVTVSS VL: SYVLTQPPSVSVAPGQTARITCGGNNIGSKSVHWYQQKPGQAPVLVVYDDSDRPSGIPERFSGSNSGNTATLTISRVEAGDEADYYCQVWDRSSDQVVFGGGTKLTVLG    7.04
4. Ab5 ADC (Ab5 conjugated as in Formula XI, DAR of 8) (antibody, human IgG1, kappa, L234A L235A, V domains shown, camptothecin analog linker-payload of Formula XI on cysteine thiols after full reduction, DAR of 8 per antibody; positions not given, Antibody-drug conjugate of Ab5; also called Ab5 (ADC column)) VH: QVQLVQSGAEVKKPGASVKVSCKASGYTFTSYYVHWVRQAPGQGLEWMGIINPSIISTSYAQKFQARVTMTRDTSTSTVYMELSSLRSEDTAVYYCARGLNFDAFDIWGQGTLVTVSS VL: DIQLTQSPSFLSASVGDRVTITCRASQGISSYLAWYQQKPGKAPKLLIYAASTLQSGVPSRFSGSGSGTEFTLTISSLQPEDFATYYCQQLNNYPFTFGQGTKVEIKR    8.40
